Biological target: GSK3B (human) (UniProt P49841)
Sequence (P49841 whole entry, looked up): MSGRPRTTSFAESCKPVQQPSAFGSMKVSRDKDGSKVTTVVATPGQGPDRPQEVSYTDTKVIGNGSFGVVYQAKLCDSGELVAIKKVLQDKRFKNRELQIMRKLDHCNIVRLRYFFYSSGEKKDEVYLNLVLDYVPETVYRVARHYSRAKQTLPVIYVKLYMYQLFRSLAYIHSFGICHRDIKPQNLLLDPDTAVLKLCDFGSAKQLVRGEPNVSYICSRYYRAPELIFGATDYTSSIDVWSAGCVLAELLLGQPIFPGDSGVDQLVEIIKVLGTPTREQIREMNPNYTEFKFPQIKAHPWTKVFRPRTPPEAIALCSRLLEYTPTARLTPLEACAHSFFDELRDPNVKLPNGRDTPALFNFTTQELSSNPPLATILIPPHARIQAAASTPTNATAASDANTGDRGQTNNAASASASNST
Test: KINOMEscan competition binding
Conditions: compound 10.0 µM
# kinase still bound, per cent of control per record follows
Attribute Measured: kinase still bound, per cent of control (%)

- Molecule: "COc1cc(C(=O)NC2CCN(C)CC2)ccc1Nc1ncc2c(n1)N(C1CCCC1)C(C)CC(=O)N2C (centres undefined)"
  Number: 100
- Molecule: "CCN1CCN(Cc2ccc(Nc3ncc4c(n3)N(C)c3ccccc3C(=O)N4C)cc2C(F)(F)F)CC1"
  Number: 47
- Molecule: "C[C@@H](Oc1cc(-n2cnc3ccc(CN4CCN(C)CC4)cc32)sc1C(N)=O)c1ccccc1C(F)(F)F"
  Number: 100
- Molecule: "Nc1ccc(-c2ccc3ncc4ccc(=O)n(-c5cccc(C(F)(F)F)c5)c4c3c2)cn1"
  Number: 100
- Molecule: "Cc1ccc(NC(=O)c2cccc(C(C)(C)C#N)c2)cc1Nc1ccc2ncn(C)c(=O)c2c1"
  Number: 95
- Molecule: "Cc1ccc2nc(NCCN)c3ncc(C)n3c2c1"
  Number: 68
- Molecule: "O=C(NOC[C@H](O)CO)c1ccc(F)c(F)c1Nc1ccc(I)cc1F"
  Number: 68
- Molecule: "C=CC(=O)Nc1cccc(Nc2nc(N[C@H]3CC[C@H](N(C)C)CC3)nc3c2ncn3C(C)C)c1"
  Number: 94
- Molecule: "N#Cc1c(NC(=O)c2cccc3ccccc23)sc2c1CCCC2"
  Number: 66
